test name: Saturation solubility of meloxicam and its salts in various dissolving media
Format: physicochemical
test settings: 0.1 N hydrochloric acid, pH 1, simulated gastric fluid, read-out: Solubility at ambient temperature
recorded endpoint: solubility thermodynamic (µg/mL)
Give bare numbers, in µg/mL.

Record summary for Cc1cnc(NC(=O)C2=C(O)c3ccccc3S(=O)(=O)N2C)s1 : reported solubility thermodynamic = 0.9
